Origin of values: paper PMC10786891

Listed next: entries and their corresponding Kd.
Biological target: T1, EsCas13d, nuclease-dead (Eubacterium siraeum, UniProt B0MS50, R295A;H300A;R849A;H854A)
T1 sequence: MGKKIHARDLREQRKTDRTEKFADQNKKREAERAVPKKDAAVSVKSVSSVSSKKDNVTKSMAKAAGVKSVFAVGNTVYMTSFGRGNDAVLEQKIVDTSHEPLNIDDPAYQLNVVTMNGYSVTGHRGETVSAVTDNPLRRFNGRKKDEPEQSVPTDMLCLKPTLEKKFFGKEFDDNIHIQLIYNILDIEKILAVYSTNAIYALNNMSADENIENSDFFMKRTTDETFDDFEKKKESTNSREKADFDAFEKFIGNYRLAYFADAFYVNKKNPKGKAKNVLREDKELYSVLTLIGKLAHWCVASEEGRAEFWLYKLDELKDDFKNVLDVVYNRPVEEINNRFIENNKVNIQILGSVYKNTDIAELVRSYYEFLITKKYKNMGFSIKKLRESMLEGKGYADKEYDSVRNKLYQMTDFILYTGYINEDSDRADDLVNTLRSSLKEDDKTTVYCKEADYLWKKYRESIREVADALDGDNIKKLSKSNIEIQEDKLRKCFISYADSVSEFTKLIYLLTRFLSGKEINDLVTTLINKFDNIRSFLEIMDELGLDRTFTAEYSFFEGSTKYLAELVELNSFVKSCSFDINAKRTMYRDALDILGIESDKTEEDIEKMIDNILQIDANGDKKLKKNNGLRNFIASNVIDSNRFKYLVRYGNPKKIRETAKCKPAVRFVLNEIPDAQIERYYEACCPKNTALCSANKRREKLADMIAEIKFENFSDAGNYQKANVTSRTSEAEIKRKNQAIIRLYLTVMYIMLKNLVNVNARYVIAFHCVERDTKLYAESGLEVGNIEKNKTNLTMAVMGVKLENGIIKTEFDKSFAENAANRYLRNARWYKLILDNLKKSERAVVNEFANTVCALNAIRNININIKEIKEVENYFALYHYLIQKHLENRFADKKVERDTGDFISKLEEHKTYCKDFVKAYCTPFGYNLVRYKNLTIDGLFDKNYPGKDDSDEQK
Experiment: crRNA (strand 1, pre-loaded); Mg2+; 40 mM Tris-HCl pH 7.5, 150 mM NaCl, 6 mM MgCl2, 1 mM DTT, 0.1% Tween-20, 0.2 mg/ml BSA; 25 C; 10 min per concentration, then washed
Conditions: tags: His6-TwinStrep-SUMO cleaved; N-terminal SNAP kept (SNAP-Surface 488); label: 3' end held by stalled T7 RNA polymerase
property-measured: Kd (nM)

>  <binder>
target 1 insU 3' of 2,insG 3' of 1 (mixed) RNA 1: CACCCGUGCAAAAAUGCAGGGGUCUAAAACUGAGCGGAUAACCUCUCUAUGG RNA 2: GGGAAUGGAUCCACAUCUACGAAUUCGUACCAUAGAGAGGUUAUCCGCUCUAGCCGAGAUCGGAAGAGCACACGU

>  <property-measured>
Kd

>  <meas-value>
12.2

$$$$
>  <binder>
target 1 insA 3' of 22,insC 3' of 17 (mixed) RNA 1: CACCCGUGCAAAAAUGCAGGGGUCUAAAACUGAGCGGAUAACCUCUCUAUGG RNA 2: GGGAAUGGAUCCACAUCUACGAAUUCGUACACAUAGCAGAGGUUAUCCGCUCACCGAGAUCGGAAGAGCACACGU

>  <property-measured>
Kd

>  <meas-value>
47

$$$$
>  <binder>
target 1 MT 5'PFS CAG 3'PFS AUA (mixed) RNA 1: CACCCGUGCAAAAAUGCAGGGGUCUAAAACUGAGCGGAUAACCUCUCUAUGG RNA 2: GGGAAUGGAUCCACAUCUACGAAUUCCAGCCAUAGAGAGGUUAUCCGCUCAAUAAGAUCGGAAGAGCACACGU

>  <property-measured>
Kd

>  <meas-value>
29

$$$$
>  <binder>
target 1 MT 5'PFS CUA 3'PFS AGU (mixed) RNA 1: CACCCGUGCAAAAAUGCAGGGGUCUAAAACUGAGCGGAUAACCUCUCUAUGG RNA 2: GGGAAUGGAUCCACAUCUACGAAUUCCUACCAUAGAGAGGUUAUCCGCUCAAGUAGAUCGGAAGAGCACACGU

>  <property-measured>
Kd

>  <meas-value>
12.2

$$$$
